- tested.system: GST-SNAP25 FL (UniProt P60880)
- Sequence (P60880 whole entry): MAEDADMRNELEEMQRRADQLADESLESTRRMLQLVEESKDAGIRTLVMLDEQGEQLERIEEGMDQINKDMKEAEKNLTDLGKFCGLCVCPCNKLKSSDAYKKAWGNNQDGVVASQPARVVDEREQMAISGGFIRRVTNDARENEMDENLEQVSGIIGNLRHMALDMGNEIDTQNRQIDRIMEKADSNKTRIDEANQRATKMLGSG
Catalogue of binders with associated A450 with SNAP25 FL
Respond using a number only.

As a guide, the following entries are already answered.
binder | A450 with SNAP25 FL
C14 (antibody, V domains shown) VH: EVKLVESGGGLVQPKGSLKLSCAASGFTFNTNAMNWVRQAPGKGLEWVARIRSKSDNYATYYADSVKDRFTISRDDSPSMLYLQMNNLKTEDTAMYYCVYGRSYGGLGYWGQGTLVTVSA VL: DIVLTQSPASLAVSLGQRATISCRASKSVSTSGYSYVHWYQQKPGQPPKLLIYLASNLESGVPARFSGSGSGTDFTLNIHPVEEEDAATYYCQHSRELPLTFGAGTKLELK | 0.001
C16 (antibody, V domains shown) VH: EVQLQQSGAELARPGASVQMSCKAFGYTFTNYTMHWVRQRPGQGLEWIGFINPSSDYTNYNQKFKDKATLSADKSSSTAYMQLSSLTSEDSAVYYCARRIFYNGRTYAAMDYWGQGTSVTVSS VL: DIVMTQSPASLAVSLGQRATISCRASKSVSSSGYSYMHWYQQKPGQPPKLLIYLASNLESGVPARFSGSGSGTDFTLNIHPVEEEDAATYYCQHSRELPLTFGAGTKLELK | 0.001

Please fill in: A450 with SNAP25 FL reported for D2 (antibody, V domains shown) VH: DVKLQESGPGLVKPSQSLSLTCSVTGYSITSGYYWNWIRQFPGNKLEWMGYIRYDGSNNYNPSLKNRISITRDTSKNQFFLKLNSVTTEDTASYYCARDRDSSYYFDYWGQGTALTVSS VL: DIVMTQSSSYLSVSLGGRVTITCKASDHINNWLAWYQQKPGNAPRLLISDTTSLETGVPSRFSGSGSGKDYTLSITSLQTEDVATYYCQQYWSAPPTFGGGTKLEIK = 1.45
